Values of MIC reported for Proteus mirabilis appear below.

// solved cases for MIC follow
INSERT INTO measurements (molecule, result) VALUES
  ('CC[C@H](C)[C@H](NC(=O)CNC(=O)[C@H](CCSC)NC(=O)[C@@H](NC(=O)[C@H](CC(=O)O)NC(=O)[C@@H](N)Cc1ccccc1)C(C)C)C(=O)N[C@H](C(=O)N[C@@H](CCCCN)C(=O)N[C@@H](CCCCN)C(=O)N[C@H](C(=O)N[C@@H](C)C(=O)N[C@@H](CO)C(=O)N[C@@H](C)C(=O)N[C@@H](CC(C)C)C(N)=O)[C@@H](C)CC)[C@@H](C)CC', '≥ 60 µM'),
  ('CC(C)C[C@H](NC(=O)[C@@H](NC(=O)[C@H](CCCCN)NC(=O)[C@H](CO)NC(=O)[C@H](C)NC(=O)[C@@H](NC(=O)[C@H](CCCCN)NC(=O)[C@H](Cc1ccccc1)NC(=O)[C@H](CC(C)C)NC(=O)[C@H](C)NC(=O)CNC(=O)[C@H](CC(C)C)NC(=O)[C@H](C)N)C(C)C)C(C)C)C(=O)O', '≥ 152 µM'),
  ('CC(C)C[C@H](NC(=O)[C@H](C)NC(=O)CNC(=O)[C@H](Cc1c[nH]c2ccccc12)NC(=O)[C@@H](N)Cc1ccccc1)C(=O)N[C@@H](Cc1ccccc1)C(=O)N[C@@H](CCCCN)C(=O)N[C@H](C(=O)N[C@@H](C)C(=O)N[C@@H](CO)C(=O)N[C@@H](CCCCN)C(=O)O)C(C)C', '≥ 160 µM');

Let us examine a further case.
Task: State its MIC on Proteus mirabilis: CSCC[C@H](NC(=O)[C@H](CC(N)=O)NC(=O)[C@H](CCCN=C(N)N)NC(=O)[C@H](CCC(N)=O)NC(=O)[C@H](Cc1c[nH]c2ccccc12)NC(=O)[C@H](CCC(N)=O)NC(=O)[C@@H](N)Cc1ccccc1)C(=O)N[C@@H](CCCN=C(N)N)C(=O)N[C@@H](CCCCN)C(=O)N[C@H](C(=O)N[C@@H](CCCN=C(N)N)C(=O)NCC(=O)N1CCC[C@H]1C(=O)N1CCC[C@H]1C(=O)N[C@H](C(=O)N[C@@H](CO)C(=O)O)C(C)C)C(C)C
Output: ≥ 1000 µM
